The measurements presented in this section are drawn from patent US10947188B2.

test system: BJeLR; test: Modulatory profiling: Alamar Blue viability, lethal compound cotreated with death modulator (EC50, AUC); assay type: cell-based, human; design: unit not given beside the values; settings: BJeLR cells; lethal compound cotreated with modulator ALLN; modulatory profile value (AUC)
Where a SMILES comes first, the peptide text is derived from it. The star is where a group is joined. Cbz = O=C(OCc1ccccc1)*
Ranges used to classify AUC, modulator BJ.ALLN: low band: < -0.07; middle band: ≥ -0.07 and < -0.03; high band: ≥ -0.03

Solved cases (4 shown):
COMPOUND | CLASS_ASSIGNMENT
C[S+]([O-])c1nc(-c2ccc(Br)cc2)cc(-c2ccccc2)c1C#N (stereo not shown) | low band
Cc1ccc(O)c(/N=C/C=C/c2cccc(Br)c2)c1 | middle band
CC(C)C[C@H](NC(=O)[C@H](Cc1ccccc1)NC(=O)c1cnccn1)B(O)O | low band
CN(C)CC(O)Cn1c2ccc(Cl)cc2c2cc(Cl)ccc21 (stereo not shown) | low band

Hello team, could you let me know which band the following compound falls into: CC(C)C[C@@H](C=O)NC(=O)[C@H](CC(C)C)NC(=O)[C@H](CC(C)C)NC(=O)OCc1ccccc1 [MG132, reference compound] (Cbz-Leu-Leu-Leu-aldehyde)
low band

// bin(item) where item = CC1CC2=C(CC1CNCCCN(C)C)C(C)(C)CCC2 (stereo not shown)
middle band

Class? Entry: C[C@H]1CCC[C@]2(C)C[C@H]3OC(=O)[C@H](CN4CCCC4)[C@H]3C=C12
high band

Consider [O-][N+]1=c2ccc(Nc3ccccc3)cc2=NC12CCCCC2 . To which AUC, modulator BJ.ALLN class does it belong?
high band

# bin label for Cc1[nH]c2c(ccc3ccccc32)c1C1C(CCN)C1(C)C (stereo not shown)
high band

// bin(item) where item = CC(C)C[C@H](NC(=O)[C@H](CC(C)C)NC(=O)[C@H](CC(C)C)NC(=O)OCc1ccccc1)B(O)O
low band

Category lookup for the compound CC[C@]1(O)C[C@H]2CN(CCc3c([nH]c4ccccc34)[C@@](C(=O)OC)(c3cc4c(cc3OC)N(C=O)[C@H]3[C@@](O)(C(=O)OC)[C@H](OC(C)=O)[C@]5(CC)C=CCN6CC[C@]43[C@@H]65)C2)C1
middle band

Please report the category associated with Cc1cccc(Cn2ncc(Cl)c(Cl)c2=O)c1 , nothing else.
high band

For this compound, which bin applies? CC1(C)CC(=O)C2=C(C1)OC1=C(C(=O)CC(C)(C)C1)C2c1ccc(O)cc1O
middle band

Entry COc1ccc(C(=O)C(CN2CCCC2)c2ccccc2)cc1 (stereo not shown) belongs to which category?
high band
